TARGET_UNDER_TEST: MINDY2 (Homo sapiens, UniProt Q8NBR6)
Sequence (Q8NBR6 1-621): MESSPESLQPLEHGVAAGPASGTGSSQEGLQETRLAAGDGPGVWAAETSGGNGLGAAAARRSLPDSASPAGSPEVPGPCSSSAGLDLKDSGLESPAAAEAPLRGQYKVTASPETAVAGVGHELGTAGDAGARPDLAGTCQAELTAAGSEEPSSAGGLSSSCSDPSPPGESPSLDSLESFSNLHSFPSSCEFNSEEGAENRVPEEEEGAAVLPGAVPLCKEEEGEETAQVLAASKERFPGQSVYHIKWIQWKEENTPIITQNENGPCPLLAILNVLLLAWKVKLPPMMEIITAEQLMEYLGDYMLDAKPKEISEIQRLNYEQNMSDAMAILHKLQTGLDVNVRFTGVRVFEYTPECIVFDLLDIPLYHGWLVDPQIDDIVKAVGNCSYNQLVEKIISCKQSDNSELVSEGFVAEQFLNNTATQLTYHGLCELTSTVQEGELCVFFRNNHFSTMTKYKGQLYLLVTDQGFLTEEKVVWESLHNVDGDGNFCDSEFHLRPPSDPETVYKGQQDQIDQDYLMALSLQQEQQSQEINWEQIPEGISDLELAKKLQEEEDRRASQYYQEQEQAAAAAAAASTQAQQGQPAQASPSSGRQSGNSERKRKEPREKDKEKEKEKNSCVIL
PROPERTY_NAME: IC50

[[record]]
smiles = "C[C@@H]1[C@H]2CCN(C(=O)c3ncc(-c4ccnc(C#N)c4)o3)[C@H]2CN1C#N"
target_under_test = "MINDY2 (Homo sapiens, UniProt Q8NBR6)"
endpoint_result = "> 300 µM"


====

TARGET_UNDER_TEST: USP48 (Homo sapiens, UniProt Q86UV5)
Sequence (Q86UV5 1-1035): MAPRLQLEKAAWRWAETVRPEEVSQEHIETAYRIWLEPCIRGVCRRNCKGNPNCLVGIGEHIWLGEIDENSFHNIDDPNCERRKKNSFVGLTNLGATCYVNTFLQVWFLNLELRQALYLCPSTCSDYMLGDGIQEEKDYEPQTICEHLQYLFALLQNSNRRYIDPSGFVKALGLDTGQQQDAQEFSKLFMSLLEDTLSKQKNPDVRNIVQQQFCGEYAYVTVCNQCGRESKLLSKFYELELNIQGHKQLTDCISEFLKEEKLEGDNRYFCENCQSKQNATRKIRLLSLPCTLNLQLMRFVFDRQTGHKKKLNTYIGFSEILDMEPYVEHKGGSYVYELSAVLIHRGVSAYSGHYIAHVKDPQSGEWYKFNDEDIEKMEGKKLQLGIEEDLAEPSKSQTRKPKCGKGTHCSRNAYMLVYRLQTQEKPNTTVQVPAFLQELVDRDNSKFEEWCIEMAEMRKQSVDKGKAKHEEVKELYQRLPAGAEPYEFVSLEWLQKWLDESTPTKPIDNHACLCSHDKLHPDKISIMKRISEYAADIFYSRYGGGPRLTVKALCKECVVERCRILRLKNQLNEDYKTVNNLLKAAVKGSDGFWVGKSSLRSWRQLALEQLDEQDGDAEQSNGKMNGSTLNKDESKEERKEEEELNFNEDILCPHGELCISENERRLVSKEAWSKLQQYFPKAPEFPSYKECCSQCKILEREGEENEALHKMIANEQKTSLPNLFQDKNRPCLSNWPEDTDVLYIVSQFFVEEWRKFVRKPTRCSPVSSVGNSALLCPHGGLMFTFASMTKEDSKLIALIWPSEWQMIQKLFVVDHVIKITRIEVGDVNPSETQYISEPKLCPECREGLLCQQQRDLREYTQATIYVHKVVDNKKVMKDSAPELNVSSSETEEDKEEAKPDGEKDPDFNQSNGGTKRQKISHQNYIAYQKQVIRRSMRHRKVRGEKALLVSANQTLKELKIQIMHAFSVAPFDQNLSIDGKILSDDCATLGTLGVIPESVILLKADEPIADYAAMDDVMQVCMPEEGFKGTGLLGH
PROPERTY_NAME: IC50

[[record]]
compound = "C[C@@H]1[C@H]2CCN(C(=O)c3ncc(-c4ccnc(C#N)c4)o3)[C@H]2CN1C#N [MTX115325]"
endpoint_result = "> 300 µM"


====

Sequence of the target: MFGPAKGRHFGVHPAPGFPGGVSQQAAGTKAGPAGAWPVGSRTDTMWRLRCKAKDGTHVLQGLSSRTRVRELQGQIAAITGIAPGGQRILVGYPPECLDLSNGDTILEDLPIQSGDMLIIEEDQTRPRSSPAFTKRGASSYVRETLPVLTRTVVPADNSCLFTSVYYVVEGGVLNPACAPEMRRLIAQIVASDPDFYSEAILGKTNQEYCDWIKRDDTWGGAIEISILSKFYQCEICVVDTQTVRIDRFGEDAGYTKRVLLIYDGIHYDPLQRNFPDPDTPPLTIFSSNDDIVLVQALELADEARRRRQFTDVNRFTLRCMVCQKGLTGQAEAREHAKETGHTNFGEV
PROPERTY_NAME: IC50

[[record]]
molecule = "C[C@@H]1[C@H]2CCN(C(=O)c3ncc(-c4ccnc(C#N)c4)o3)[C@H]2CN1C#N [MTX115325]"
property_name = "IC50"
endpoint_result = "> 300 µM"


====

EXPERIMENT: In-life whole blood compound levels in the A53T model
Assay type: in vivo, mouse
CONDITION_PARAMETERS: mouse, whole blood; 15 mg/kg BID oral, A53T model, seven days before end of study
PROPERTY_NAME: Cmax (ng/mL)

[[record]]
smiles = "C[C@@H]1[C@H]2CCN(C(=O)c3ncc(-c4ccnc(C#N)c4)o3)[C@H]2CN1C#N"
property_name = "Cmax"
unit_spec = "ng/mL"
endpoint_result = 7550


====

Target protein (sequence): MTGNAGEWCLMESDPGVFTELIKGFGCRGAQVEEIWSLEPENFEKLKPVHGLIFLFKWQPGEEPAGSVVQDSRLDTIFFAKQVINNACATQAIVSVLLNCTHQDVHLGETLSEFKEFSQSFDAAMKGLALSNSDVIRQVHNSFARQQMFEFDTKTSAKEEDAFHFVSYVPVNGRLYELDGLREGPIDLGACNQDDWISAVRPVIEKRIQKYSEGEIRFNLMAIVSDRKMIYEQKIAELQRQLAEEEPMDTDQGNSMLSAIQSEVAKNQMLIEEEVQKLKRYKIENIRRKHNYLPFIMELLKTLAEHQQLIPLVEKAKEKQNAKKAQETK
PROPERTY_NAME: IC50

[[record]]
smiles = "C[C@@H]1[C@H]2CCN(C(=O)c3ncc(-c4ccnc(C#N)c4)o3)[C@H]2CN1C#N"
endpoint_result = "> 300 µM"


====

Target chain: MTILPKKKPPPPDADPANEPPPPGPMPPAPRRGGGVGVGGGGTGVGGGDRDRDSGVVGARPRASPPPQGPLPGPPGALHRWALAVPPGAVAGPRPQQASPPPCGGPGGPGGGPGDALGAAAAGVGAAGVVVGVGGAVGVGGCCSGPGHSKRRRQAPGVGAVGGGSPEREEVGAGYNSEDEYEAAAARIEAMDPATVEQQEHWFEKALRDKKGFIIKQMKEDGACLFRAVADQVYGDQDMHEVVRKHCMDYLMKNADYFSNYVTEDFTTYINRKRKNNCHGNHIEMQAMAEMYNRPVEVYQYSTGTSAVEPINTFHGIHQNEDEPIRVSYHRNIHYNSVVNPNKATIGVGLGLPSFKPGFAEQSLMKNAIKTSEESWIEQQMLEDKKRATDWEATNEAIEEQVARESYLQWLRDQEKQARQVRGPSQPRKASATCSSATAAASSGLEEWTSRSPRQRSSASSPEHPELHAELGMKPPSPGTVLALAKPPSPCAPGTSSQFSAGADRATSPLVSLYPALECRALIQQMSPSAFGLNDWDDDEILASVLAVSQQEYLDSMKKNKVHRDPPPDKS
PROPERTY_NAME: IC50

[[record]]
smiles = "C[C@@H]1[C@H]2CCN(C(=O)c3ncc(-c4ccnc(C#N)c4)o3)[C@H]2CN1C#N"
endpoint_result = "> 300 µM"


====

TARGET_UNDER_TEST: OTUD1 CD (Homo sapiens, UniProt Q5VV17)
Sequence (Q5VV17 309-438 limits assumed): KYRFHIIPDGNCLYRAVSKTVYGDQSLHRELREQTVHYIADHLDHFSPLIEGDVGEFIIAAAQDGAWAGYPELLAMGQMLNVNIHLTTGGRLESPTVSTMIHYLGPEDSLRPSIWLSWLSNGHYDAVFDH
PROPERTY_NAME: IC50

[[record]]
smiles = "C[C@@H]1[C@H]2CCN(C(=O)c3ncc(-c4ccnc(C#N)c4)o3)[C@H]2CN1C#N"
endpoint_result = "> 300 µM"


====

EXPERIMENT: Mouse pharmacokinetics (IV clearance, oral bioavailability)
Assay type: in vivo
CONDITION_PARAMETERS: blood, 10 mg/kg oral gavage vs 2 mg/kg IV
PROPERTY_NAME: bioavailability

[[record]]
smiles = "C[C@@H]1[C@H]2CCN(C(=O)c3ncc(-c4ccnc(C#N)c4)o3)[C@H]2CN1C#N"
endpoint_result = "98%"

